Experiment: Shear viscosity of base formulation with additives (TA Instruments AR-G2 rheometer)
Assay type: physicochemical
Settings: 3.0% Royal Hue; 5% single additive; 25 C, shear rate 1 s^-1
Procedure: Now referring to Table 3, the base formulations were made by mixing 1.5 or 3.0% of perfume R, 24% sodium undecyl sulfate (CAS#1072-24-8) active, 6% Lauramidopropyl Betaine (CAS#4292-10-8) active, and 60.4% deionized water which leaves 8% unfilled for oil addition and level studies (the balance being filled in by distilled water). […] The shear viscosity at 25 C for each formulations was measured at a shear rate of 1 s^−1 using a TA Instruments AR-G2 rheometer with a concentric cylinder attachment. […]
value type: Shear viscosity [cP] for mixture
Form field: result (number plus unit)

Task: What does the data say about its Shear viscosity [cP] for mixture? Entry: CCOC(=O)C1OC1(C)c1ccccc1 (stereo not shown) [Ethyl Methyl Phenyl Glycidate]
Output: 163 cP

Task: I am curious: what Shear viscosity [cP] for mixture value has been reported for CC1=CCC2CC1C2(C)C (stereo not shown) ?
Output: 207 cP

Task: For the compound shown here, `C=C(C)[C@H]1CC=C(C)CC1` , give the reported Shear viscosity [cP] for mixture.
Output: 160 cP

Task: Requested read-out: Shear viscosity [cP] for mixture. Entry: `CC(=O)CCc1ccc(O)cc1`
Output: 110 cP

Task: Entry under review: CC(CC=O)CCCC(C)(C)O (stereo not shown) [Hydroxycitronellal] . Reported Shear viscosity [cP] for mixture?
Output: 161 cP

Task: Which Shear viscosity [cP] for mixture value is on record for `CC(=O)c1ccccc1` ?
Output: 119 cP

Task: # input compound: `CC12CCC(CC1)C(C)(C)O2` ; wanted: its Shear viscosity [cP] for mixture
Output: 376 cP

====

Test: Kinematic viscosity of surfactant base formulation with added agent (calibrated Cannon viscometers)
Type: physicochemical
Details: 4% agent in base formulation, 40 C
For each record, write down the corresponding Kinematic viscosity at 40 C., 4% oil.
Give a bare numeral; the unit cSt is implied.

Task: What does the record list as Kinematic viscosity at 40 C., 4% oil for CCCCCCC1C(=O)CCC1C(=O)OC (centres unmarked) [Dihyro Iso Jasmonate] ?
Output: 119.1

Task: For C=C(C)[C@H]1CC=C(C)CC1 [Dipentene] , what is its reported Kinematic viscosity at 40 C., 4% oil?
Output: 74.5

Task: Please look up its Kinematic viscosity at 40 C., 4% oil: C=CC(C)(CCC=C(C)C)OC(=O)C(C)C (centres unmarked) [Linalyl Iso Butyrate]
Output: 73.0

Task: Param item = CCCCCC(=O)OCC(C)C [Isobutyl Hexanoate] ; retrieve measured Kinematic viscosity at 40 C., 4% oil.
Output: 177.9

Task: Recorded Kinematic viscosity at 40 C., 4% oil for CC(C)=CCC/C(C)=C/COC(=O)Cc1ccccc1 [Geranyl Phenyl Acetate] , please?
Output: 76.0

====

Experiment: Kinematic viscosity of surfactant base formulation with added agent (calibrated Cannon viscometers)
Format: physicochemical
Conditions: 2% agent in base formulation, 40 C
Kindly supply the reported Kinematic viscosity at 40 C., 2% oil values for the records listed here.
# value in cSt; strip the unit string

Task: I'd like to know its Kinematic viscosity at 40 C., 2% oil. The molecule in question is C=CC(C)(CCC=C(C)C)OC(=O)C(C)C (stereo not drawn) [Linalyl Iso Butyrate]
Output: 223.4

Task: Find the recorded Kinematic viscosity at 40 C., 2% oil belonging to CC(=O)CCc1ccc(O)cc1 [Raspberry Ketone] and report it.
Output: 151.9

Task: Which measured Kinematic viscosity at 40 C., 2% oil value corresponds to CC12CCC(CC1=O)C2(C)C (stereo not drawn) [Camphor Gum] ?
Output: 365.8

Task: Report Kinematic viscosity at 40 C., 2% oil for CCCCCC1(C)CCC(C)(C)C1=O (stereo not drawn) [Veloutone] please.
Output: 260.2

Task: # Kinematic viscosity at 40 C., 2% oil lookup, item CC(=O)OCCC(C)CCCC(C)C (stereo not drawn) [3,7-Dimethyloctyl Acetate]
Output: 445.7

Task: If you can, please state the reported Kinematic viscosity at 40 C., 2% oil value of CCCCCCC1C(=O)CCC1C(=O)OC (stereo not drawn) [Dihyro Iso Jasmonate] .
Output: 334.9

Task: // lookup Kinematic viscosity at 40 C., 2% oil for CC12CCC(CC1)C(C)(C)O2 [Eucalyptol]
Output: 527.3

Task: Request the reported Kinematic viscosity at 40 C., 2% oil associated with CCCCCCCCCCCCCCCC [Hexadecane]
Output: 21.1

Task: GET /values?readout=Kinematic viscosity at 40 C., 2% oil&item= CCCCCCCC(OC)OC [1,1-Dimethoxyoctane]
Output: 500.7

Task: Could you tell me which Kinematic viscosity at 40 C., 2% oil is on file for CC(=O)OCCC(C)CCC=C(C)C (stereo not drawn) [Citronellyl Acetate] ?
Output: 362.7

Task: Consider the molecule CCCCCC(=O)OCC(C)C [Isobutyl Hexanoate] and give its measured Kinematic viscosity at 40 C., 2% oil.
Output: 390.0

Task: Which Kinematic viscosity at 40 C., 2% oil is listed for C=C(C)[C@H]1CC=C(C)CC1 [Dipentene] ?
Output: 307.6

====

Record form. Attribute: Lowest viscosity achieved. Fill in for each entry.
Experiment: Kinematic viscosity of surfactant base formulation with added agent (calibrated Cannon viscometers)
Assay type: physicochemical
Conditions: kinematic viscosity at 40° C.; lowest over 2%, 4%, 6%, 8% agent in base formulation (24% sodium undecyl sulfate, 6% lauramidopropyl betaine, 1.6% perfume)

Task: May I ask what Lowest viscosity achieved has been recorded for CC(C)COC(=O)c1ccccc1O [Iso Butyl Salicylate] ?
Output: 409 cSt

Task: Entry under review: CCC(CC(C)CC)=NO (stereo not drawn) [5-Methyl-3-Heptanone Oxime] . Reported Lowest viscosity achieved?
Output: 246 cSt

Task: For the molecule shown here, CCCCOC(=O)c1ccccc1O [Butyl Salicylate] , give the reported Lowest viscosity achieved.
Output: 368 cSt

Task: For the molecule CC12CCC(CC1=O)C2(C)C (stereo not drawn) [Camphor Gum] , what Lowest viscosity achieved is on record?
Output: 127 cSt

Task: Query: Lowest viscosity achieved; subject: CCCCCCCC(OC)OC [1,1-Dimethoxyoctane]
Output: 308 cSt

Task: So what's the measured Lowest viscosity achieved for this one? C=C(C)[C@H]1CC=C(C)CC1 [Dipentene]
Output: 35 cSt

====

Assay: Kinematic viscosity of surfactant base formulation with added agent (calibrated Cannon viscometers)
Format: physicochemical
Conditions: 6% agent in base formulation, 40 C
Where a name gives a salt, the structure may show the parent alone.
// boundary case: Kinematic viscosity at 40 C., 6% oil equal to 50 cSt maps to -1; strictly smaller maps to 1

Task: Does `CC12CCC(CC1)C(C)(C)O2` have Kinematic viscosity at 40 C., 6% oil strictly under 50 cSt?
Output: -1

Task: API: query returns whether the compound falls strictly under 50 cSt in Kinematic viscosity at 40 C., 6% oil. Query: C=C(C)[C@H]1CC=C(C)CC1 [Limonene]
Output: -1

Task: Input `CC(=O)CCc1ccc(O)cc1` ; condition: Kinematic viscosity at 40 C., 6% oil strictly below 50 cSt. Does it hold?
Output: -1

Task: Hello, I'm reviewing records and need to know if Kinematic viscosity at 40 C., 6% oil of `CC1=CCC(C(C)C)=CC1` is below 50 cSt. Could you check?
Output: 1

Task: # strict comparison: is reported Kinematic viscosity at 40 C., 6% oil < 50 cSt? input = CC(C)=CCC/C(C)=C/COC(=O)Cc1ccccc1 [Geranyl Phenyl Acetate]
Output: 1

Task: Consider CC(CC=O)CCCC(C)(C)O (centres unmarked) [Hydroxycitronellal] . Does its Kinematic viscosity at 40 C., 6% oil lie strictly below 50 cSt?
Output: -1

Task: I wonder whether C=CC(C)(CCC=C(C)C)OC(=O)C(C)C (centres unmarked) [Linalyl Iso Butyrate] has Kinematic viscosity at 40 C., 6% oil below 50 cSt. Can you tell?
Output: 1

Task: # check: Kinematic viscosity at 40 C., 6% oil < 50 cSt for C=C(C)[C@H]1CC=C(C)CC1 [Dipentene]
Output: 1

Task: Dear colleague, could you confirm whether Kinematic viscosity at 40 C., 6% oil of CCCCCC(=O)OCC(C)C [Isobutyl Hexanoate] falls below 50 cSt? Thanks.
Output: -1

Task: Quick check: Kinematic viscosity at 40 C., 6% oil of CCCCCC1(C)CCC(C)(C)C1=O (centres unmarked) under 50 cSt?
Output: -1

Task: Hello, is Kinematic viscosity at 40 C., 6% oil of the following compound strictly smaller than 50 cSt? CCCCCCCCCCCCCC(=O)OC(C)C [Iso Propyl Myristate]
Output: 1

Task: Dear colleague, could you confirm whether Kinematic viscosity at 40 C., 6% oil of `CC1=CC=C(C(C)C)CC1` falls below 50 cSt? Thanks.
Output: 1

Task: In plain terms, does CCOC(=O)CC(O)(CC(=O)OCC)C(=O)OCC [Triethyl Citrate] come in under 50 cSt for Kinematic viscosity at 40 C., 6% oil?
Output: -1

Where do the numbers come from? From patent US20160310389A1.
